Consider the following binders and their measured kon readings.
Target: T1, purified recombinant human VEGF165 (human, UniProt P15692 27-191, glycosylated)
T1 construct: mature; Bought from Calbiochem; also called VEGF protein (Calbiochem); homodimeric VEGF protein
T1 sequence (P15692 other isoform, or with tags, fused parts or gaps limits assumed): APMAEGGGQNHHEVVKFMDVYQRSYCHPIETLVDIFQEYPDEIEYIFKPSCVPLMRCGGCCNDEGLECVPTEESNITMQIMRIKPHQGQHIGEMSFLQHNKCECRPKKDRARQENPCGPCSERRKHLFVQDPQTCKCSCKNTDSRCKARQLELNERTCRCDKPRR
Assay: SPR (BIAcore), purified scFv over VEGF immobilized on CM5 chip, 35 C
Method: Antibody fragments in the format of single chain were expressed as described below and purified. The measurement was done by measuring the change of SPR units (y-axis) vs time (x-axis) when a purified antibody binds its antigen (VEGF) immobilized on the CM5 biochip at 35° C. Kd values were calculated by the […]. BIAcore Biosensor Assay was used to determine antibody affinity. […] Each sensorgram was recorded and normalized to a PBS base line.
Numbers only here, please. The scale is M⁻¹ s⁻¹.

binder="hAB8 (scFv, Single chain format; not shown: HA-His6 tag at C-terminus) scFv: EVQLVQSGGGVVQPGGSLRLSCAASGYTFTNYGMNWIRQAPGKGLEWVGWINTYTGEPTYAADFKRRVTFSLDTSKSTAYLQLNSLRAEDTAVYYCAKYPYYYGRSHWYFDVWGQGTLVTVSSGGGGSGGGGSGGGGSDIQMTQSPSSLSASVGDRVTITCSASQDISNYLNWYQQKPGKAPKVLIYFTSSLHSGVPSRFSGSGSGTDFTLTISSLQPEDFATYYCQQYSTVPWTFGQGTKVEIK" outcomemeasure=kon measured=15800

Recorded result, hAB37 (scFv, Single chain format; not shown: HA-His6 tag at C-terminus) scFv: EVQLVQSGGGVVQPGGSLRLSCAASGYNFSHFGLNWLRQAPGKGLEWVGWINTYNGETTYAPDFKRRVTFSLDTSKSTAYLQLNSLRAEDTAVYYCAKYPYYYGRSHWYFDVWGQGTLVTVSSGGGGSGGGGSGGGGSDIVMTQSPSTLSASPGERATITCNASQSIGSYLAWYQQKPGQAPKVLIYGASNLASGVPSRFSGSRSGTDFTLTISSLQPEDFAVYYCQQYNSTPWTFGGGTKLEIK , kon: 57300
